Biological target: T1, FLAG-tagged human APRIL (human, UniProt O75888 105-250, limits assumed)
T1 construct: also called FLAG-tagged APRIL; FLAG-APRIL; not shown: FLAG tag
T1 sequence (looked up): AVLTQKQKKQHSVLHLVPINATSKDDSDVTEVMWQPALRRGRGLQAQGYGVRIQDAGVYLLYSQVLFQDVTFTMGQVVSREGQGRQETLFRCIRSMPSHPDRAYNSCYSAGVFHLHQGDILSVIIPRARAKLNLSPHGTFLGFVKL
Experiment: FLAG-APRIL ELISA after 10 min at 65 °C, antibody at 0.316 µg/ml
Assign % residual binding after heat treatment (room temperature = 100%) to each entry below.
Answers are plain numbers, in %.

binder	test value
VH14_1.VL15 (antibody, human IgG4, V domains shown, VH14 with R72S; rest is human IgG4 (S241P, Kabat) and human kappa; also called 14_1.15; antibody 14_1.15) VH: QVQLVQSGAEVKKPGASVKVSCKASGYTFTSYVMHWVRQAPGQGLEWMGYINPYNDAPKYNEKFKGRVTMTSDTSASTAYMELSSLRSDDTAVYYCARGLGYALYYAMDYWGQGTTVTVSS VL: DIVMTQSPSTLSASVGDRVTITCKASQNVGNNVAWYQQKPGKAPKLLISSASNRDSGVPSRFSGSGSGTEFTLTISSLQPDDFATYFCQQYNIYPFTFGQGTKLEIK	71

Q: What value of % residual binding after heat treatment (room temperature = 100%) has been reported for the following binder? VH14_1D.VL15 (antibody, human IgG4, V domains shown, VH14_1 with T74K; Rest is human IgG4 (S241P, Kabat) and human kappa; also called 14_1D.15) VH: QVQLVQSGAEVKKPGASVKVSCKASGYTFTSYVMHWVRQAPGQGLEWMGYINPYNDAPKYNEKFKGRVTMTSDKSASTAYMELSSLRSDDTAVYYCARGLGYALYYAMDYWGQGTTVTVSS VL: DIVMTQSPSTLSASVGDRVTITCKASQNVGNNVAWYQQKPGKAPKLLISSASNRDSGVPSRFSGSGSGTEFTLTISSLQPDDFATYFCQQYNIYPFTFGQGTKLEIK
Result: 49.4

Where do the numbers come from? From patent US20160264674A1.
